All values here come from paper PMC5335602.

Tested On: human serum albumin (HSA) (Homo sapiens)
Construct: gene ALB
Sequence (P02768 25-609): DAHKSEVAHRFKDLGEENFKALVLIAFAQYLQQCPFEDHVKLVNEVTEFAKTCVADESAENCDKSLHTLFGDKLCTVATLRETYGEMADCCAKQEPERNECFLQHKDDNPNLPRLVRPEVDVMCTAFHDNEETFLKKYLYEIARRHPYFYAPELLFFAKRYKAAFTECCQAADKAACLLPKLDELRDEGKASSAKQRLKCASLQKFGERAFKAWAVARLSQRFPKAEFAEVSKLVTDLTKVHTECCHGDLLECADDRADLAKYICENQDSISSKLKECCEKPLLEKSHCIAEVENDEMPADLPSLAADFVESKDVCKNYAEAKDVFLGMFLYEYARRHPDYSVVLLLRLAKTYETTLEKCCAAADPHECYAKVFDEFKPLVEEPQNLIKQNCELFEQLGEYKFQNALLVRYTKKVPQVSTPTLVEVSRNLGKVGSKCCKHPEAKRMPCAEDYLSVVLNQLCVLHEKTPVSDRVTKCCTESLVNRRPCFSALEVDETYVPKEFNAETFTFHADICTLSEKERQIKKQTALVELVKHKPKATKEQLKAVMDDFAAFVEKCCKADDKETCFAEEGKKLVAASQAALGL
Test: waterLOGSY NMR titration ([…] HSA, […] s mixing time)
Assay type: binding
Setup Conditions: read-out: KD^obs/μM / 25 μM HSA
Quantity Measured: Kd (µM)
Report as a plain number; the unit µM is understood.

Please fill in: Kd reported for N[C@@H](Cc1c[nH]c2ccccc12)C(=O)O [L-tryptophan] = 185
